Here we gather pIC50 data for UniProtKB P31391 reported by several publications.
// field semantics: pIC50 = negative decimal log of concentration (mol/L)

CC(C)[C@@H]1NC(=O)[C@H](CCCCN)NC(=O)[C@@H](Cc2c[nH]c3ccccc23)NC(=O)[C@H](Cc2ccc(O)cc2)NC(=O)[C@@H](NC(=O)[C@H](N)Cc2ccc3ccccc3c2)CSSC[C@H](C(=O)N[C@@H](Cc2ccc3ccccc3c2)C(N)=O)NC1=O (stereo in doubt; 27)    6.00
C[C@@H](O)[C@@H]1NC(=O)[C@H](CCCCN)NC(=O)[C@H]([C@@H](C)c2ccc3ccccc3c2)NC(=O)[C@H](Cc2ccc(O)cc2)NC(=O)[C@H](Cc2ccccc2)NC(=O)[C@H](N)CSSC[C@@H](C(=O)O)NC(=O)[C@H](Cc2ccccc2)NC1=O    8.46

Incoming: Which pIC50 reading was recorded for the compound CC(C)NCc1ccc(C[C@H]2C(=O)N[C@@H]([C@@H](C)O)C(=O)N[C@@H](Cc3ccc(O)c(I)c3)C(=O)N[C@H]3CCCCCCNC(=O)CC[C@H](NC(=O)[C@H](Cc4ccccc4)NC(=O)[C@H](CCCCN)NC(=O)[C@@H](N)CSSC[C@@H](C(=O)O)NC(=O)[C@H](CO)NC3=O)C(=O)N[C@H](Cc3c[nH]c4ccccc34)C(=O)N2C)cc1 ?
Outgoing: 6.21

Incoming: Entry to check: C[C@@H](O)[C@@H]1NC(=O)[C@H](CCCCN)NC(=O)[C@H]([C@@H](C)c2ccc3ccccc3c2)NC(=O)[C@H](Cc2ccc(O)cc2)NC(=O)[C@H](Cc2ccccc2)NC(=O)[C@@H](N)CSSC[C@@H](C(=O)O)NC(=O)[C@H](Cc2ccccc2)NC1=O
Outgoing: 8.68

* * *

// molecules with reported IC50 on Somatostatin receptor type 4 (Homo sapiens, UniProt P31391), multi-publication
Sequence (P31391 whole entry): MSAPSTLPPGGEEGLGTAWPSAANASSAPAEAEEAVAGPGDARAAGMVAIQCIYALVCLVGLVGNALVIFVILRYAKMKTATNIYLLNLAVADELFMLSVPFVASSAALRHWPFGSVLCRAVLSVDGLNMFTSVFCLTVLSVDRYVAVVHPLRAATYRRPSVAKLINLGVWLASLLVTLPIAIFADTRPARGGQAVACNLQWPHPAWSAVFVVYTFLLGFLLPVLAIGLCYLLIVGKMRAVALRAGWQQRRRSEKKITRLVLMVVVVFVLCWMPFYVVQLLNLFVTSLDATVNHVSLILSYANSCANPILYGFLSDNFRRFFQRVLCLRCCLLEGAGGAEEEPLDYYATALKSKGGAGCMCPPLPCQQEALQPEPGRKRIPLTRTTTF

Answered cases to consult:
CC(C)[C@H](NC(=O)[C@H](CCCCN)NC(=O)[C@@H](Cc1c[nH]c2ccccc12)NC(=O)[C@H](Cc1ccc(O)cc1)NC(=O)[C@@H](Cc1ccc(Cl)cc1)NC(=O)[C@@H](N)Cc1ccccc1)C(=O)N[C@@H](Cc1ccccc1)C(=O)N[C@H](C(N)=O)[C@@H](C)O    1 µM
CC(C)NCc1ccc(C[C@@H]2NC(=O)[C@@H](Cc3c[nH]c4ccccc34)NC(=O)[C@H](Cc3ccccc3)NC(=O)[C@@H]3CCC(=O)NCC[C@H](NC(=O)[C@H]([C@@H](C)O)NC2=O)C(=O)N[C@@H]([C@@H](C)O)C(=O)N[C@@H](CO)C(=O)N[C@H](C(=O)O)CSSC[C@H](NC(=O)[C@@H](N)Cc2ccc(O)cc2)C(=O)N[C@@H](CCCCN)C(=O)N3)cc1    > 1 µM
C[C@@H](O)[C@@H]1NC(=O)[C@H](CCCCN)NC(=O)[C@@H](Cc2ccc(NC(N)=O)cc2)NC(=O)[C@H](Cc2ccc(NC(=O)[C@@H]3CC(=O)NC(=O)N3)cc2)NC(=O)[C@H](NC(=O)[C@H](Cc2ccc(Cl)cc2)NC(=O)CN2CCN(CC(=O)O)CCN(CC(=O)O)CCN(CC(=O)O)CC2)CSSC[C@@H](C(=O)N[C@H](Cc2ccc(O)cc2)C(N)=O)NC1=O    > 1 µM
C[C@@H](O)[C@H](NC(=O)[C@@H]1CSSC[C@@H](NC(=O)[C@@H](N)Cc2ccccc2)C(=O)N[C@@H](Cc2cccnc2)C(=O)N[C@H](Cc2c[nH]c3ccccc23)C(=O)N[C@@H](CCCCN)C(=O)N[C@@H]([C@@H](C)O)C(=O)N1)C(N)=O    1 µM
C[C@@H]1NC(=O)[C@@H](NC(=O)[C@H](N)Cc2ccccc2)CSSC[C@@H](C(=O)N[C@H](C(N)=O)[C@@H](C)O)NC(=O)[C@H]([C@@H](C)O)NC(=O)[C@H](CCCCN)NC(=O)[C@@H](Cc2c[nH]c3ccccc23)NC1=O    > 1 µM
C[C@@H](O)[C@@H]1NC(=O)[C@H](CCCCN)NC(=O)[C@@H](Cc2c[nH]c3ccccc23)NC(=O)[C@H](Cc2ccccc2)NC(=O)[C@H](Cc2ccccc2)NC(=O)[C@@H](N)CSSC[C@@H](C(=O)O)NC(=O)[C@@H](N(C)C(=O)c2ccccc2)NC1=O    0.08 µM

Incoming: For the molecule shown here, CC(C)NCc1ccc(C[C@@H]2NC(=O)[C@@H](Cc3c[nH]c4ccccc34)NC(=O)[C@H]3CCC(=O)NCC[C@H](NC(=O)[C@H]([C@@H](C)O)NC2=O)C(=O)N[C@@H]([C@@H](C)O)C(=O)N[C@@H](CO)C(=O)N[C@H](C(=O)O)CSSC[C@H](NC(=O)[C@@H](N)Cc2ccc(O)cc2)C(=O)N[C@@H](CCCCN)C(=O)N[C@@H](Cc2ccccc2)C(=O)N3)cc1 , give the reported IC50.
Outgoing: > 1 µM
